Reference for the values: patent US20130022605A1

# SYSTEM: T1, human TNFR1 on HeLa cells (human, UniProt P19438 30-455)
# T1 sequence (looked up): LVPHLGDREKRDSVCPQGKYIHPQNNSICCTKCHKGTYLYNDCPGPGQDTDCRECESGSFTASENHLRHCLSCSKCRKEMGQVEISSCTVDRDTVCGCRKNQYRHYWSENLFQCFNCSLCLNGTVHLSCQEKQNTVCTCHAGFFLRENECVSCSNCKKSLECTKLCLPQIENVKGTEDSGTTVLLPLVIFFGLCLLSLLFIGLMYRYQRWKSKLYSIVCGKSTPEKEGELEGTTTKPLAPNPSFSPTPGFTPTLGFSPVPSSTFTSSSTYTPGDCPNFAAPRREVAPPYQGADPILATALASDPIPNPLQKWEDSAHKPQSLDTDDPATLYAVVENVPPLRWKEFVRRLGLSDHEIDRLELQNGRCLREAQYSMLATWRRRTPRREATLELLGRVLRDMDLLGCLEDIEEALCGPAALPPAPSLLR
# ASSAY PROTOCOL: cell-based or functional assay
Consider the following binders; for each one, report its HeLa IL-8 Cell Assay, Activity (IC50).
All answers are understood in nM, so give the number only.

Enquiry: What measured HeLa IL-8 Cell Assay, Activity (IC50) goes with TAR2h-12 (other) EVQLLESGGGLVQPGGSLRLSCAASGFTFVAYNMGWVRQAPGKGLEWVSFIDMYGAKTYYADSVKGRFTISRDNSKNTLYLQMNSLRAEDTAVYYCAKLCLMDCSGDIFDYWGQGTLVTVSS ?
Return: 100

Enquiry: Returns the measured HeLa IL-8 Cell Assay, Activity (IC50) for the input binder. Input: TAR2h-42 (other, anti-human TNFR1 dAb) EVQLLESGGGLVQPGGSLRLSCAASGFTFAKYNMYWVRQAPGKGLEWVSAISPKGQHTYYADSVKGRFTISRDNSKNTLYLQMNSLRAEDTAVYYCAEGMGSDAITFDYWGQGTLVTVSS
Return: 10
